Tested on: expanded OPCs
Protocol Summary: cells
Conditions: alamarBlue viability, NCC library compound at 1 µM, sheet "All Tox data"

[
  {
    "Sample Smiles": "OC[C@H]1O[C@@H](n2cnc3c(NC4CCCC4)nc(Cl)nc32)[C@H](O)[C@@H]1O",
    "1 µM (% DMSO)": 88.1
  },
  {
    "Sample Smiles": "COc1cc(C[C@@H](CO)[C@H](CO)Cc2ccc(O)c(OC)c2)ccc1O",
    "1 µM (% DMSO)": 88.4
  },
  {
    "Sample Smiles": "Nc1ccc2cn[nH]c2c1",
    "1 µM (% DMSO)": 87.5
  },
  {
    "Sample Smiles": "C[C@H](N[C@@H](CCc1ccccc1)C(=O)O)C(=O)N1CCC[C@H]1C(=O)O",
    "1 µM (% DMSO)": 91.2
  }
]
